result type: glass transition temperature (°C)
Answers are plain numbers, in °C.

# compound, glass transition temperature (°C)
data = [
    ("*CC(CCC)C(CCC)COC(=O)c1ccc(C(=O)O*)cc1 (repeat unit)", 30.00),
    ("*c1ccc2c(c1)C(=O)N(c1cccc(Oc3cccc(Oc4cccc(N5C(=O)c6ccc(C(*)(C(F)(F)F)C(F)(F)F)cc6C5=O)c4)c3)c1)C2=O (repeat unit)", 206.50),
    ("*c1ccc(Cc2ccc(-n3nc(-c4ccccc4)cc3-c3ccc(-c4cc(-c5ccccc5)nn4*)cc3)cc2)cc1 (repeat unit)", 252.00),
    ("*Oc1ccc(S(=O)(=O)c2ccc(Oc3ccc(C(c4ccc(*)c(Br)c4)(C(F)(F)F)C(F)(F)F)cc3Br)cc2)cc1 (repeat unit)", 197.50),
    ("*CC(*)C(=O)Oc1ccc(C#N)cc1 (repeat unit)", 92.00),
    ("*c1ccc2c(c1)Sc1cc(-c3sc(/C=C/C4=CC(=C(C#N)C#N)C=C(/C=C/c5sc(*)c(CCCCCC)c5CCCCCC)O4)c(CCCCCC)c3CCCCCC)ccc1N2CCCCCC (repeat unit)", 130.00),
]

Then this compound:
# glass transition temperature (compound: *OP(=O)(Oc1ccccc1)OC(CCl)COc1ccc(S(=O)(=O)c2ccc(OCC(*)CCl)cc2)cc1 (repeat unit) ) is 48.00
